# TEST TARGET: T1, Anti-PSMA Fab
# T1 construct: also called 006 PSMA Fab
# MEASUREMENT DESCRIPTION: clonal phage ELISA; biotinylated PSMA Fab on neutravidin plate, blocking buffer alone; anti-M13 HRP detection;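 also: crude clonal phage supernatants added without washing to wells pretreated with blocking buffer with or without PSMA antigen, short incubation, then washed before detecting bound phage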
Phage binding ELISA signal, Anti-PSMA Fab overview
ASSAY METRIC: Phage binding ELISA signal, Anti-PSMA Fab

| BINDER | MEASURED VALUE |
| --- | --- |
| SEHYCVPNWMCAGL [Phage-3693] | 1.46 |
| YLHECRPEWMCVGF [Phage-3699] | 1.45 |
| SQHSCIPSWMCNGF [Phage-3695] | 1.45 |
| GLPYCVPSWMCDGF [Phage-3700] | 1.44 |
| TVPRCVPAWMCNWS [Phage-3694] | 1.45 |
| MIAMCKPPWMCIGL [Phage-3687] | 1.47 |
| ALSMCVPQWMCQGF [Phage-3690] | 1.46 |
| TMQMCKPAWMCSQL [Phage-3696] | 1.45 |
| VVVQCVPKWMCYGF [Phage-3688] | 1.47 |
| DVPYCIPSWMCHGF [Phage-3698] | 1.45 |
| VNERCIPDWMCVGF [Phage-3691] | 1.46 |
| LPHACKPSWMCQGF [Phage-3689] | 1.47 |
| DHMMCVPPWMCDGI [Phage-3692] | 1.46 |
| NEKLCVPTWMCDGL [Phage-3697] | 1.45 |

The measurements presented in this section are drawn from patent US20260242478A1.
